All values here come from paper PMC5915741.

# studyTarget: T1, p19 (Carnation Italian ringspot virus (CIRV), UniProt Q66104 1-172)
# T1 sequence: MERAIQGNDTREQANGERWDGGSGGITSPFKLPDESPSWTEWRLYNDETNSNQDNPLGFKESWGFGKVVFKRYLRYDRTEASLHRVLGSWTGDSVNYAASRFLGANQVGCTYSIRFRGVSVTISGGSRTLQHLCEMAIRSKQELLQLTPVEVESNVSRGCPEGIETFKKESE
# protocolDescription: competition EMSA; KC vs labeled gf698 siRNA, 0.5 nM p19 dimer
# assayConditions: protein: recombinant; tags: GST (pGEX-6P-1) removed by PreScission protease; chain copies: 2; 2 nt 3' overhangs
measure: Ki (nM)
Give just the numeric value; nM need not be written.

Per the records, this binder ( gf698 siRNA (dsRNA, 5' phosphate on both strands) RNA 1: UAGUUCAUCCAUGCCAUGUGU RNA 2: ACAUGGCAUGGAUGAACUAUA ) has Ki equal to 0.07
